Assay: MTT cytotoxicity assay
Type: cell-based
Conditions: human
RECORDED_METRIC: CC50 at 2 days

MOLECULE: CCCCCCCCCCCCCCCCCCCC(=O)O [Eicosanoic acid, eicosanoic acid]
VALUE_MEASURED: > 200 µg/mL

Field: next molecule
The molecule listed as COc1cccc2c1C(=O)c1c(O)c3c(c(O)c1C2=O)C[C@@](O)(C(=O)CO)C[C@@H]3O[C@H]1C[C@H](N)[C@H](O)[C@H](C)O1 [Doxorubicin, Doxorubicin chloride, reference compound] has a reported CC50 at 2 days of 640 nM

====

Assay: MTT cytotoxicity assay
Assay type: cell-based
Conditions: human, C3A hepatocellular carcinoma cells; C3A cells, 200 μg/ml (highest concentration tested); read-out: percentage cell viability
RECORDED_METRIC: viability at 2 days, 200 μg/ml (%)
Give bare numbers, in %.

The molecule listed as `CCCCCCCCCCCCCCCCCCCCCCCCO` has a reported viability at 2 days, 200 μg/ml of 59.7

====

Assay: MTT cytotoxicity assay
Format: cell-based
Conditions: human; C3A cells, 200 μg/ml (highest concentration tested); read-out: percentage cell viability
RECORDED_METRIC: viability at 2 days, 200 μg/ml (%)
Answers are plain numbers, in %.

The compound listed as `CCCCCCCCCCCCCCCCCCCC(=O)O` has a reported viability at 2 days, 200 μg/ml of 50.1
